# Tested on: Plasmodium berghei
# assay-explanation: Screen against P. berghei liver stage (PbLuc), transformed with Luciferase, at 2uM
# Format: functional, HepG2
# condition-context: tested at 2 uM
About 2,700 (4%) of roughly 68,000 compounds showed an effect of 50% or more. Only a selection was taken, and strong results are over-represented in it overall.
Listed next: entries and their corresponding INHIBITION.
Express the result in % but write the number alone.

Please review the following examples before continuing.
Q: Which measured INHIBITION value corresponds to Cc1occc1C(=O)N1CCC2(CC1)C(c1cnn(C)c1)CC(=O)N2C (stereo unspecified) ?
A: -41.72

Q: So what's the measured INHIBITION for this one? O=C1C[C@@H]2CC[C@H](CN1)N2C(=O)CCCc1ccc(Cl)cc1
A: -29.06

Q: Reported INHIBITION for CC(=O)N1CCC2(CC1)CN(C(=O)c1ccc3c(c1)OCO3)C2 : what is it?
A: 37.54

Q: # lookup: INHIBITION of O=C(O)c1c(-c2cccnc2)ncc2c1CCN(CC1CCOC1)C2 (stereo unspecified)
A: 21.13

Q: Requested field: INHIBITION. Item: CC(C)N1CCCC(Cc2nccnc2Cl)C1 (stereo unspecified)
A: -47.18

Q: Recorded INHIBITION for CCOc1ccccc1OC1CCN(C(=O)c2csnn2)CC1 , please?
A: 19.71

Q: Which INHIBITION is reported for this compound? CC(=O)N1CCC2(CC1)CN(C(=O)c1ccc3c(c1)OCCO3)C2
A: 41.38

Q: What does the record list as INHIBITION for Cc1ccccc1N1CCN(C(=O)CCc2nncn2C)C(C)C1 (stereo unspecified) ?
A: -38.81

Continuing:
Q: # lookup: INHIBITION of CCOc1ccccc1OC1CCN(C(=O)c2cnsn2)CC1
A: 14.06

Q: Which INHIBITION value is on record for CCOc1ccccc1OC1CCN(C(=O)c2cnns2)CC1 ?
A: 73.34

Q: Which INHIBITION value is on record for O=C(O)c1cc(-c2ccoc2)cc(S(=O)(=O)N2CCSCC2)c1 ?
A: 7.09
